target: rat 5HT2C receptor (Rattus norvegicus); construct: expressed in transfected cells; test: Binding affinity at the rat 5HT2C receptor; conditions: Table 3b; read-out: r5HT2C Ki
Sequence (P08909 33-460): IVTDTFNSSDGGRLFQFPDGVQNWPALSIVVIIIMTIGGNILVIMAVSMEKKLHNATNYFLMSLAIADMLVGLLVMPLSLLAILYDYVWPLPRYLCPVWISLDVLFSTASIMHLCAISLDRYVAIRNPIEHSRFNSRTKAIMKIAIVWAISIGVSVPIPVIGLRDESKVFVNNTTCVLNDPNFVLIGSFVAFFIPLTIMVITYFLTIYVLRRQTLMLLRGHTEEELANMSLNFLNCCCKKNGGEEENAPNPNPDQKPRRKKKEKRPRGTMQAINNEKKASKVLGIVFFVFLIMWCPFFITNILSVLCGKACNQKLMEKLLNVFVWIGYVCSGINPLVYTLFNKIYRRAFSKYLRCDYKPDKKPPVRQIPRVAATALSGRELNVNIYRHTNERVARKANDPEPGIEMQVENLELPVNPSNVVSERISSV
I'd be grateful if you could share measured Ki for these entries.
Numbers only, in µM.

CCCCN(CCCC)c1ccc(CN2CCC(CNC(=O)N3C(=O)NC(C)=C(C(=O)OC)C3c3ccc4nonc4c3)CC2)cc1 (centres unmarked) [Example 6]; 25.5
COC(=O)C1=C(C)NC(=O)N(C(=O)NCCCN2CCC3(CC2)OCc2ccccc23)C1c1ccc(F)c(F)c1 (centres unmarked) [Example 20]; 15.1
COCC1=C(C(=O)OC)C(c2ccc(F)c(F)c2)N(C(=O)NCCCN2CC=C(c3cccc(NC(C)=O)c3)CC2)C(=O)N1 (centres unmarked) [Example 2]; 39.8

Let us move to another entry and its Ki.
Task: Write Ki of CCCCN(CCCC)c1ccc(CNC[C@H]2CC[C@H](NC(=O)c3cccc4ccccc34)CC2)cc1 [Example 13] ; system used: rat 5HT2C receptor (Rattus norvegicus)
Result: 25

Origin of the recorded values: patent US20040038855A1
